- Test system: Klebsiella ssp.
- assay.summary: Antimicrobial susceptibility testing (MIC), BD Phoenix Automated Microbiology System; note: key: R, resistant; I, intermediate; S, susceptible; R*: *As a rule, when ESBL is detected, an interpretation of susceptible or intermediate for penicillins, cephalosporins and aztreonam is reported as resistant
- Format: cell-based
- condition.set: Klebsiella ssp. isolate 1
value.type: interpretation of the result

1. O=C1CN(/N=C/c2ccc([N+](=O)[O-])o2)C(=O)N1 [Nf., Nitrofurantoin]; R
2. CO/N=C(\C(=O)N[C@@H]1C(=O)N2C(C(=O)[O-])=C(C[N+]3(C)CCCC3)CS[C@H]12)c1csc(N)n1 [Cefe., Cefepime]; R
3. NCC[C@H](O)C(=O)N[C@@H]1C[C@H](N)[C@@H](O[C@H]2O[C@H](CN)[C@@H](O)[C@H](O)[C@H]2O)[C@H](O)[C@H]1O[C@H]1O[C@H](CO)[C@@H](O)[C@H](N)[C@H]1O [Amik., Amikacin]; S
4. C[C@H]1COc2c(N3CCN(C)CC3)c(F)cc3c(=O)c(C(=O)O)cn1c23 [Lev., Levofloxacin]; R
